Target: Notch1 (Homo sapiens, UniProt P46531)
Construct: pLV[Tet]-Puro-TRE3G>Notch1-ICD
Sequence (P46531 1754-2555 limits assumed): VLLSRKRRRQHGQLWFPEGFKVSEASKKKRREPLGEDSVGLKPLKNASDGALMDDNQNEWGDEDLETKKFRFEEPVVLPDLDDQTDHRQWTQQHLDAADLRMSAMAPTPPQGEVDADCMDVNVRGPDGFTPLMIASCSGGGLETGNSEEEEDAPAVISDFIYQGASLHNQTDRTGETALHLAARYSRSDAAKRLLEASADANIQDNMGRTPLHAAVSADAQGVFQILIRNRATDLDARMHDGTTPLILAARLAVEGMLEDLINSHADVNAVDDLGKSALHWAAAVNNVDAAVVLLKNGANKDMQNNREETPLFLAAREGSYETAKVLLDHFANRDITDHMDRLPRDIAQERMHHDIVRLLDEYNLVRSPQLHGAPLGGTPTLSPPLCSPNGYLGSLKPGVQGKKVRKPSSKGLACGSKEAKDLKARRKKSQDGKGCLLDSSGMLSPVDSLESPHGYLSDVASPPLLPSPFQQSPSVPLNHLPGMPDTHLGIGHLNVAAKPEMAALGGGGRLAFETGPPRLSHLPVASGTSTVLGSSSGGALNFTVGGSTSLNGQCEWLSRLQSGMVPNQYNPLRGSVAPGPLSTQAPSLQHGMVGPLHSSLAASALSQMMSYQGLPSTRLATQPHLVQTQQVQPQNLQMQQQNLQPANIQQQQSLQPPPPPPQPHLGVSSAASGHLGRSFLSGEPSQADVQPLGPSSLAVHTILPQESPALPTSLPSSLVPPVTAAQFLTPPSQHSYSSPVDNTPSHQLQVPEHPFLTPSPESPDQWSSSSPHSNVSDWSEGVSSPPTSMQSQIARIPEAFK
Assay: Notch1 Reporter Assay (CSL-responsive luciferase, doxycycline-induced Notch-ICD in 293A cells)
Details: 25 ng/mL Dox, 24 h, luciferase normalized to cell viability
Protocol: 293A cells expressing 1) pCMV-Tet-On 3G, 2) pLV[Tet]-Puro-TRE3G>Notch1-ICD, 3) pLV[Tet]-Puro-TRE3G>Notch2-ICD, 4) pLV[Tet]-Puro-TRE3G>Notch3-ICD, and 5) pCSL-RElement-Luc were used. […] Results are analyzed and IC50's are determined in GraphPad by nonlinear regression curve fitting (4 parameter) of dose response curves.
Where a name gives a salt, the structure may show the parent alone.
Reported Endpoint: pIC50
Units for pIC50: none; it is -log10 of a concentration expressed in mol/L.

Data request: Fill in the blank: the reported pIC50 of COc1cc(-c2cc(C(F)(F)F)cc3c2n(C)c(=O)n3CC(=O)Nc2ccc(SC)cc2F)cc(F)c1OCc1nnc[nH]1 [SSTN-500, hydrochloride] is ____.
Data returned: 5.13

Data request: Follow-up item: COCc1cccc(NC(=O)Cn2c(=O)n(C)c3c(-c4cc(F)c(OCc5nnc[nH]5)c(OC)c4)cc(C(F)(F)F)cc32)c1 [SSTN-548]
Data returned: 5.06

Data request: Follow-up item: COc1cc(-c2cc(C(F)(F)F)cc3c2n(C)c(=O)n3CC(=O)Nc2ccc(SC)cc2)cc(F)c1OCc1nnc[nH]1 [SSTN-498, hydrochloride]
Data returned: 5.07

---
Data request: Fill in the blank: the reported pIC50 of COC(=O)c1cc(OCc2nnc[nH]2)c(OC)cc1-c1cc(C(F)(F)F)cc2c1n(C)c(=O)n2CC(=O)Nc1ccc(F)cc1 [SSTN-604, hydrochloride salt] is ____.
Data returned: 4.98

Data request: Follow-up item: COc1cc(-c2cc(C(F)(F)F)cc3c2n(C)c(=O)n3CC(=O)N(C)c2ccc(Cl)cc2)cc(F)c1OCc1nnc[nH]1 [compound 424, hydrochloride]
Data returned: 5.44

Data request: Follow-up item: COc1cc(-c2cc(C(F)(F)F)cc3c2n(C)c(=O)n3CC(=O)Nc2ccc(F)cc2)cc(F)c1OCc1nnc[nH]1 [compound 465, hydrochloride]
Data returned: 5.07
